assay: Liver microsomal incubations (RLM); format: in vitro ADME; conditions: rat liver microsomes 0.5 mg/mL, 25 μM, NADPH, percent remaining at 1 hour
RESULT TYPE: RLM % rem. @ 1 hr
Reply with a number, then the unit it belongs to.

Some compounds with recorded RLM % rem. @ 1 hr:
>  <COMPOUND>
CN1CCN(c2nc(-c3ccc(C(=O)N[C@H](C(=O)N4C[C@@H](F)[C@H]5OCC(=O)[C@H]54)C4CCCC4)cc3)cs2)CC1

>  <RESULT TYPE>
RLM % rem. @ 1 hr

>  <RESULT>
3.5%

$$$$
>  <COMPOUND>
CN1CCN(c2ccc(C(=O)N[C@H](C(=O)N3CC[C@H]4OCC(=O)[C@H]43)C3CCCC3)cc2)CC1

>  <RESULT TYPE>
RLM % rem. @ 1 hr

>  <RESULT>
93.9%

$$$$
>  <COMPOUND>
CN1CCN(c2ccc(C(=O)N[C@H](C(=O)N3C[C@H](F)[C@H]4OCC(=O)[C@H]43)C3CCCC3)cc2)CC1

>  <RESULT TYPE>
RLM % rem. @ 1 hr

>  <RESULT>
82%

$$$$
>  <COMPOUND>
CC(C)C[C@H](NC(=O)c1ccc(-c2csc(N3CCN(C)CC3)n2)cc1)C(=O)N1C[C@@H](F)[C@H]2OCC(=O)[C@H]21

>  <RESULT TYPE>
RLM % rem. @ 1 hr

>  <RESULT>
4.4%

$$$$

Next compound, RLM % rem. @ 1 hr to be filled in.
# query: RLM % rem. @ 1 hr of entry CN1CCN(c2ccc(C(=O)N[C@H](C(=O)N3CC(Cl)[C@H]4OCC(=O)[C@H]43)C3CCCC3)cc2)CC1 (stereo in doubt) 81.3%
